Source: PubChem BioAssay (NCI)

# Test system: SK-OV-3 ovarian
# ASSAY TEXT: NCI tumour cell line growth inhibition, 48 h
Consider the following compounds and their measured TGI readings.
RESULT TYPE: TGI

COMPOUND	SYSTEM	MEAS VALUE
O=CNNC(=O)Nc1cccc2ccccc12	SK-OV-3 ovarian	> 100 µM
CCC(O)c1ccc(Br)cc1NC(=O)c1cccc(Cl)c1 (centres undefined)	SK-OV-3 ovarian	64.3 µM
COc1ccc(N=NC(C(=O)c2ccccc2)C(=O)c2ccccc2)cc1	SK-OV-3 ovarian	96 µM
NC(N)=NC(N)=Nc1ccc(S(=O)(=O)O)cc1	SK-OV-3 ovarian	> 100 µM
O=C(c1nc2ccc([N+](=O)[O-])cc2[nH]c1=O)C(O)c1ccc2c(c1)OCO2 (centres undefined)	SK-OV-3 ovarian	> 100 µM
CC(NC(=O)NC(C)(C)C)NC(=O)C(N)CC(=O)O (centres undefined)	SK-OV-3 ovarian	> 100 µM
CC[C@@]1(O)C(=O)OCc2c1cc1n(c2=O)Cc2c-1nc1ccccc1c2/C=N\NC(=O)C1CCCN1 (some centres undefined)	SK-OV-3 ovarian	> 100 µM
CO/N=C(/C)c1cccc(Nc2nc3ccccc3c3[nH]c4ccccc4c23)c1	SK-OV-3 ovarian	40.3 µM
O=C(O)Cc1ccc(Nc2nc3cc(C(F)(F)F)ccc3nc2C(=O)O)cc1	SK-OV-3 ovarian	> 100 µM
O=C(O)C(O)C(O)C(=O)O (centres undefined)	SK-OV-3 ovarian	> 100 µM
O=C(Cc1nc2ccccc2c(=O)n1-c1ccccc1Cl)c1ccncc1	SK-OV-3 ovarian	> 100 µM
CCOC(=O)c1[nH]c(-c2[nH]c(-c3[nH]c(-c4[nH]c(C(=O)OCC)c(C)c4C(=O)OCC)c(C(=O)OCC)c3C)c(C)c2C(=O)OCC)c(C(=O)OCC)c1C	SK-OV-3 ovarian	> 100 µM
C/C(=N\N=C(\N)SB(F)F)c1ccc2ccccc2c1	SK-OV-3 ovarian	> 100 µM
Nc1[nH]nc(Nc2ccc(Cl)cc2)c1P(=O)(c1ccccc1)c1ccccc1	SK-OV-3 ovarian	> 100 µM
CC1/C=C/[C@@]2(C)CCC(C(C)(C)O)C2C(O)C[C@](C)(O)/C=C/C1 (some centres undefined)	SK-OV-3 ovarian	> 100 µM
NC(=S)/N=C(/c1nc2ccc(Cl)cc2[nH]c1=O)C(O)c1ccccc1Cl (centres undefined)	SK-OV-3 ovarian	> 100 µM
Cc1nc(N)nc2c1CCC(O)S2 (centres undefined)	SK-OV-3 ovarian	25.6 µM
Cc1ncc(C(=O)Nc2ccc(CN3CCN(C)CC3)c(C(F)(F)F)c2)cc1C#Cc1cnc2cccnn12	SK-OV-3 ovarian	7.19 µM
O=S(=O)(Nc1nc2ccccc2nc1Nc1ccc2ccccc2c1)c1ccccc1	SK-OV-3 ovarian	> 100 µM
C=C(C(=O)O)[C@@H]1C[C@@H]2O[C@H]1[C@@H](O)[C@@H](C)CCCC(C)=CCC[C@@]2(C)O	SK-OV-3 ovarian	> 100 µM
COc1cc(F)c(F)c(Nc2ccc(I)cc2F)c1NS(=O)(=O)C1(C[C@H](O)CO)CC1	SK-OV-3 ovarian	> 10 µM
O=C(Nc1cc(C(F)(F)F)ccc1Cl)c1ccc(NC2=C(Cl)C(=O)N(Cc3ccccc3)C2=O)cc1	SK-OV-3 ovarian	> 100 µM
COc1cc(C(C)O)c(S(=O)(=O)CC(C)O)nn1 (centres undefined)	SK-OV-3 ovarian	> 100 µM
COc1c(/C=C/C(C)(C)O)cc(C2CC(=O)c3c(O)cc(O)cc3O2)cc1CC=C(C)C (centres undefined)	SK-OV-3 ovarian	17.6 µM
O=C(NOC[C@H](O)CO)c1ccc(F)c(F)c1Nc1ccc(I)cc1F	SK-OV-3 ovarian	> 100 µM
O=C(/C=C/c1ccccc1)C(Br)C(Br)c1ccccc1 (centres undefined)	SK-OV-3 ovarian	13.3 µM
Cc1nc(-c2ccccc2)n2nc(NCCCN3CCOCC3)ncc12	SK-OV-3 ovarian	17.9 µM
COc1ccc(C2OC(=O)c3ccc4ccccc4c32)c(C)c1 (centres undefined)	SK-OV-3 ovarian	60.1 µM
CC[n+]1oc(C(=O)c2ccc(Cl)cc2)c(-c2ccccc2)c1-c1ccccc1.[Cl][Fe]([Cl])([Cl])[Cl]	SK-OV-3 ovarian	> 100 µM
C[C@@H]1C[C@H](C)CN(S(=O)(=O)c2ccc3c(NO)c4ccc(S(=O)(=O)N5C[C@H](C)C[C@H](C)C5)cc4c(N=O)c3c2)C1	SK-OV-3 ovarian	0.248 µM
Nc1ccccc1C#C/C=C\C#Cc1ccc(OCCCNC(=O)c2cc3ccccc3[nH]2)cc1	SK-OV-3 ovarian	33.1 µM
O=C1/C(=C/c2cccc(Br)c2)COc2ccc(O)cc21	SK-OV-3 ovarian	19.8 µM
COC(=O)CCC1=C(CC(=O)OC)C(C)(OC)N=C1NC(=O)OCc1ccccc1 (centres undefined)	SK-OV-3 ovarian	> 100 µM
COC(=O)c1ccc(/C=C2\Oc3ccccc3C2=O)cc1	SK-OV-3 ovarian	> 100 µM
CC(=N\N)/C(C)=N/N=C(C)/C(C)=N/N	SK-OV-3 ovarian	> 100 µM
CCOC(=O)C(=O)Nc1ccccc1C	SK-OV-3 ovarian	> 100 µM
COC/C=C\COC	SK-OV-3 ovarian	> 100 µM
c1ccc2c(c1)c1c(n2CCOCCN2CCCC2)CCCC1	SK-OV-3 ovarian	87.7 µM
CSc1ccc(-c2cc(-c3nc4ccccc4[nH]3)no2)cc1	SK-OV-3 ovarian	> 100 µM

---

# Test system: SR leukemia
# ASSAY TEXT: NCI tumour cell line growth inhibition, 48 h
RESULT TYPE: GI50

CPD SMILES	RESULT TYPE	MEAS VALUE
Nc1ccccc1C#C/C=C\C#Cc1ccc(OCCCNC(=O)c2cc3ccccc3[nH]2)cc1	GI50	23.3 µM
COc1ccc(-c2ccncc2)cc1C(N)=O	GI50	> 25 µM
COc1cc(OC)c(C(=O)/C=C/c2cc3c(cc2OCc2ccccc2)OC(C)(C)CC3)cc1CC=C(C)C	GI50	2.77 µM

---

# Test system: U251 CNS
# ASSAY TEXT: NCI tumour cell line growth inhibition, 48 h

COMPOUND	TGI
O=C(CCC(=O)Nc1ccc(Cl)c(Cl)c1)CC(=O)c1ccc(Br)cc1	> 100 µM
CCOC(=O)c1c(N=P(c2ccccc2)(c2ccccc2)c2ccccc2)nnc(-c2ccccc2)c1-c1ccccc1	> 100 µM
COc1cc2c(cc1OC)C(=O)N(c1ccc(O)cc1)C2=O	> 100 µM
N#Cc1ccccc1C(Cl)(Cl)c1cnccn1	> 100 µM
CC1=NC2=Nc3nc(C)cc[n+]3CN2C=C1	> 100 µM
CC(=O)c1ccc2c(c1)C1C=CCC1[C@H](c1cc3c(cc1Br)OCO3)N2 (stereo not given in full)	11.9 µM
NCCSSCCN	> 100 µM
S=c1snc2n1CCN2	> 100 µM
CCOc1ccc2[nH]c3c(C)c4ccncc4c(C)c3c2c1	2.16 µM
FC(F)(c1ccc2ncccc2c1)c1nnc2ccc(-c3ccncc3)nn12	> 100 µM
Cn1c(-c2c(N)n(Nc3cccc(Cl)c3)c3nc(C#N)c(C#N)nc23)nc2ccccc21	15.3 µM
CN1C/C(=C\c2cccs2)C(O)/C(=C/c2cccs2)C1 (stereo not given)	> 100 µM
COC(=O)c1ccc(/C=C2\Oc3ccccc3C2=O)cc1	> 100 µM
O=C(/C=C/C12c3ccccc3C(c3ccccc31)C1C(=O)NC(=O)C12)c1ccc(Cl)cc1Cl (stereo not given)	3.06 µM
O=C1c2ccccc2-[n+]2ccc3c([nH]c4ccccc43)c21	1.47 µM
O=C(O)c1ccc(NCn2nc(-c3ccccc3O)oc2=S)cc1	> 100 µM
CCP(=O)(CC)C(Cl)Cl	> 100 µM
COc1ccc(C2OC(=O)c3ccc4ccccc4c32)c(C)c1 (stereo not given)	30.6 µM
CC1(C)OC2[C@@H](CO[C@@]3([C@@H](O)CCO)OC(C)(C)O[C@@H]23)O1 (stereo not given in full)	> 100 µM
CS(=O)(=O)CCNCc1cc(-c2cc3c(Nc4ccc(OCc5cccc(F)c5)c(Cl)c4)ncnc3s2)cs1	> 25 µM
CC(NC(=O)NC(C)(C)C)NC(=O)C(N)CC(=O)O (stereo not given)	> 100 µM
Cc1ccccc1OC(C)C(=O)NN1C(=O)CSC1c1ccc(Cl)cc1 (stereo not given)	> 93.4 µM
C#Cc1cccc(N2C(=O)c3c(c(-c4ccccc4)c(-c4ccc(Cc5ccc(-c6c(-c7ccccc7)c7c(c(-c8ccccc8)c6-c6ccccc6)C(=O)N(c6cccc(C#C)c6)C7=O)cc5)cc4)c(-c4ccccc4)c3-c3ccccc3)C2=O)c1	> 100 µM
COc1ccc(NC(=O)/C(=C/c2ccccc2)C(C)=O)cc1	29.4 µM
CCCCCCCCOC(=O)CC[C@@H](C)[C@H]1CC[C@H]2[C@@H]3[C@H](OC(=O)CCN)C[C@@H]4C[C@H](OC(=O)CCN)CC[C@]4(C)[C@H]3C[C@H](OC(=O)CCN)[C@]12C	3.61 µM
CN(Cc1cnc2nc(N)nc(N)c2n1)c1ccc(C(=O)N[C@@H](CCC(=O)O)C(=O)O)cc1	> 250 µM
O=CNNC(=O)Nc1cccc2ccccc12	> 100 µM
NC1=C(NC(=O)Cc2ccccc2F)C(=O)c2ccccc2C1=O	> 100 µM
Brc1ccc(C[P+]2(c3ccccc3)CCCCC2)cc1	> 100 µM
Cc1ncc(C(=O)Nc2ccc(CN3CCN(C)CC3)c(C(F)(F)F)c2)cc1C#Cc1cnc2cccnn12	2.6 µM
[N-]=[N+]=NC(c1cn(C2CC(O)C(CO)O2)c(=O)[nH]c1=O)C(Br)Br (stereo not given)	> 100 µM
CN1CN(c2ccccc2)C2(CCN(CC(C)(c3ccc(F)cc3)C3OCCCO3)CC2)C1=O (stereo not given)	26.6 µM
Nc1[nH]nc(Nc2ccc(Cl)cc2)c1P(=O)(c1ccccc1)c1ccccc1	> 100 µM
c1cc2c(s1)-c1sccc1C21OCCO1	> 100 µM
CC1=C[C@H]2c3c([nH]c4ccccc34)C(c3c[nH]c4ccccc34)[C@H]2CC1 (stereo not given in full)	16.3 µM
O=c1/c(=C/c2ccccc2[N+](=O)[O-])sc2nc3ccccc3n12	41.9 µM
Clc1ccc(C2=NN=C3C(c4ccccc4)=Nc4ccccc4N3C2)cc1	> 100 µM
C[C@@H]1C[C@H](C)CN(S(=O)(=O)c2ccc3c(NO)c4ccc(S(=O)(=O)N5C[C@H](C)C[C@H](C)C5)cc4c(N=O)c3c2)C1	0.266 µM
CC[C@@]1(O)C(=O)OCc2c1cc1n(c2=O)Cc2c-1nc1ccccc1c2/C=N\NC(=O)C1CCCN1 (stereo not given in full)	11.2 µM
COc1cc(F)c(F)c(Nc2ccc(I)cc2F)c1NS(=O)(=O)C1(C[C@H](O)CO)CC1	> 10 µM
